- Test system: HL-60
- run_description: HL-60 differentiation potency
- Assay type: cell-based
- cond: Homo sapiens
pEC50: −log10 of the molar value.
# pEC50 >= 6 gives yes (1), anything below gives no (0)

Tell me whether pEC50 is at least 6 here: `C[C@H]1[C@@H](OCc2cc(C(=O)O)cc(C(=O)O)c2)O[C@@H]2O[C@@]3(C)CC[C@H]4[C@H](C)CC[C@@H]1[C@@]24OO3` no (0)

* * *

- run_description: in vitro
- cond: human
readout_type: IC50

// below: answered molecules
molecule	IC50
C[C@H]1[C@@H](OCc2ccc(C(=O)NC(C)(C)C(=O)O)cc2)O[C@@H]2O[C@@]3(C)CC[C@H]4[C@H](C)CC[C@@H]1[C@@]24OO3	> 20 µM
C[C@H]1[C@@H](OC[C@H]2CCC(C(=O)O)CO2)O[C@@H]2O[C@@]3(C)CC[C@H]4[C@H](C)CC[C@@H]1[C@@]24OO3 (stereo partly drawn)	> 20 µM

Could you now look at the following molecule, please?
Suppose we examine the molecule `C[C@H]1[C@@H](Oc2ccc(C(=O)N[C@H](C(=O)O)C(C)(C)O)cc2)O[C@@H]2O[C@@]3(C)CC[C@H]4[C@H](C)CC[C@@H]1[C@@]24OO3` ; what IC50 value has been reported? > 20 µM

* * *

Reported pEC50 values for a set of compounds
- Tested on: HL-60
- run_description: HL-60 differentiation potency
- Assay type: cell-based
- cond: Homo sapiens
// pEC50 here means minus log10 of the molar concentration (mol/L)

Here are 8 compounds together with their reported answers.
compound	target_or_system	pEC50
C[C@H]1[C@H](OC[C@H]2CC[C@H](C(=O)O)CC2)O[C@@H]2O[C@@]3(C)CC[C@H]4[C@H](C)CC[C@@H]1[C@@]24OO3	HL-60	6.17
C[C@H]1[C@@H](Oc2ccc(CC(=O)O)cc2C(F)(F)F)O[C@@H]2O[C@@]3(C)CC[C@H]4[C@H](C)CC[C@@H]1[C@@]24OO3	HL-60	7.33
C[C@H]1[C@H](CCNS(C)(=O)=O)O[C@@H]2O[C@@]3(C)CC[C@H]4[C@H](C)CC[C@@H]1[C@@]24OO3	HL-60	4.78
C[C@H]1[C@@H](Oc2ccc3c(c2)OC(C(=O)O)C3)O[C@@H]2O[C@@]3(C)CC[C@H]4[C@H](C)CC[C@@H]1[C@@]24OO3 (stereo partly shown)	HL-60	7.15
C[C@H]1[C@H](OCC2CCC(F)(F)CC2)O[C@@H]2O[C@@]3(C)CC[C@H]4[C@H](C)CC[C@@H]1[C@@]24OO3	HL-60	7.32
C[C@H]1[C@@H](OCc2ccc(C(=O)NO)cc2)O[C@@H]2O[C@@]3(C)CC[C@H]4[C@H](C)CC[C@@H]1[C@@]24OO3	HL-60	7.28
C[C@H]1[C@@H](OC[C@]2(F)CC[C@H](C(=O)O)CC2)O[C@@H]2O[C@@]3(C)CC[C@H]4[C@H](C)CC[C@@H]1[C@@]24OO3	HL-60	6.50
C[C@H]1[C@H](NCc2ccccc2)O[C@@H]2O[C@@]3(C)CC[C@H]4[C@H](C)CC[C@@H]1[C@@]24OO3	HL-60	6.08

Consider the compound shown here: `C[C@H]1[C@@H](Oc2ccc(C(=O)N[C@H]3CC[C@@H](C(=O)O)C3)cc2)O[C@@H]2O[C@@]3(C)CC[C@H]4[C@H](C)CC[C@@H]1[C@@]24OO3` What is its recorded pEC50? 7.61

Also `C[C@H]1[C@@H](OCc2cc(C(=O)O)ccc2Cl)O[C@@H]2O[C@@]3(C)CC[C@H]4[C@H](C)CC[C@@H]1[C@@]24OO3` ? 6.88

Param item: `C[C@H]1[C@H](OCC(=O)N2C[C@H]3[C@@H]([C@H]2C(=O)O)C3(C)C)O[C@@H]2O[C@@]3(C)CC[C@H]4[C@H](C)CC[C@@H]1[C@@]24OO3` 5.24

Cool, now `C[C@H]1[C@H](OCCCc2ccc(C(=O)O)cc2F)O[C@@H]2O[C@@]3(C)CC[C@H]4[C@H](C)CC[C@@H]1[C@@]24OO3` 6.95

How about `C[C@H]1[C@@H](Oc2cc(F)c(CC(=O)O)c(F)c2)O[C@@H]2O[C@@]3(C)CC[C@H]4[C@H](C)CC[C@@H]1[C@@]24OO3` ? 6.88

What do you have for `Cc1cc(C(=O)O)ccc1CO[C@@H]1O[C@@H]2O[C@@]3(C)CC[C@H]4[C@H](C)CC[C@@H]([C@H]1C)[C@@]24OO3` ? 5.99

Another compound to look at: `C[C@H]1[C@@H](OC[C@@H]2CCC[C@H](C(=O)O)C2)O[C@@H]2O[C@@]3(C)CC[C@H]4[C@H](C)CC[C@@H]1[C@@]24OO3` 6.92
